ASSAY: NCI Yeast Anticancer Drug Screen. Data for the mlh1 rad18 strain (AID 175)
CONDITIONS_USED: S. cerevisiae mlh1 rad18 strain growth inhibition; at 50.0 µM (retest, dose inferred, filed as 5.0); stronger effect = higher value
The panel holds about 79,000 compounds, 15% with a hit somewhere; the sample as a whole holds those more often.
Each record gets a class by growth inhibition: low (below 20%), middle (20% to below 90%), high (90% or more)

>>> df
                                   molecule  class_name
0  COC12C(COC(N)=O)C3=C(C(=O)C(C)=C(N)C3=O)N1CC1C2N1C(=O)c1ccc(Cl)cc1 (stereo unspecified)      middle
1                      COc1cc2c(cc1O)CCCCC2         low
2  CC(C)(C)CC(C)(C)N[P+](NC(C)(C)CC(C)(C)C)(NC(C)(C)CC(C)(C)C)NC(C)(C)CC(C)(C)C        high
3  c1ccc(C2=NC(=c3ccc(=C4N=C(c5ccccc5)C(c5ccccc5)=N4)cc3)N=C2c2ccccc2)cc1         low
4         O=c1c2ccccc2[nH]c2c1[nH]c1ccccc12      middle

Asked: Determine which band this molecule sits in: Cc1cc(C2C(O)C(c3cc(C)on3)C2(C)O)no1 (stereo unspecified)
Given back: low

Asked: Determine which band this molecule sits in: `CNC(=O)N(C)/N=C/c1ccc([N+](=O)[O-])o1`
Given back: middle

Asked: Determine which band this molecule sits in: `CCCCCCCCCCCC(=O)N(CCOC(=O)c1ccco1)CCOC(=O)c1ccco1`
Given back: high

----------
ASSAY: NCI Yeast Anticancer Drug Screen. Data for the sgs1 mgt1 strain (AID 161);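 further: 0% = growth of cultures given vehicle only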
CONDITIONS_USED: S. cerevisiae sgs1 mgt1 strain, at 50.0 µM (retest, dose inferred, filed as 5.0), stronger effect = higher value
About 79,000 compounds went through this panel and 15% of them were active in at least one assay; those are over-represented in the sample as a whole.
ATTRIBUTE_MEASURED: growth inhibition (%)
Unit % implied. Number only.

                         molecule  endpoint_value
0  O=C1C=CC(=O)N1c1ccc(Br)c(Cl)c1             100

Asked: Consider the molecule shown here: Fc1ccc(OCCC(Cn2ccnc2)c2ccc(Cl)cc2Cl)cc1 (stereo not given) What is its recorded growth inhibition?
Given back: 96

Asked: Consider the molecule shown here: `CCc1cccc(C(C)(C)C)c1NC(=S)/N=C/C(C(=O)c1ccccc1)=C(\O)c1ccccc1` What is its recorded growth inhibition?
Given back: 43

Asked: Consider the molecule shown here: `c1ccc(-c2nc3nc4ccccc4nc3nc2-c2ccccn2)nc1` What is its recorded growth inhibition?
Given back: 87

----------
Items are presented alongside their recorded growth inhibition.
ASSAY: NCI Yeast Anticancer Drug Screen. Data for the rad50 strain (AID 155);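 further: 0% = growth of vehicle-only cultures of the same strain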
CONDITIONS_USED: S. cerevisiae rad50 strain growth inhibition; at 50.0 µM; stronger effect = higher value
Compounds without any hit were thinned out: in the full panel of roughly 79,000, 15% have a hit. Calls of active or inactive are those of the source. No stated cut-off is given here; in the data, active means growth inhibition above about 70%; inactive means the rest.

Past entries and their recorded results:
>>> print(df.to_string())
                                   compound  attribute_measured    endpoint_value
0     COc1cc2c(cc1OC)-c1nc(Nc3ccccc3)sc1CC2   growth inhibition  43.4% (inactive)
1                 CC(=O)Oc1c(Br)cc(Br)cc1Br   growth inhibition  9.35% (inactive)
2  CCOC(=O)c1c(SCC#N)n(-c2ccccc2)c(=S)n(-c2ccccc2)c1=O   growth inhibition      80% (active)
3  CC/C(=C(\CC)c1ccc(OCCN2CCOCC2)cc1)c1ccc(OCCN2CCOCC2)cc1   growth inhibition    82.8% (active)
4                 O=C(c1ccc(O)cc1)c1ccccc1O   growth inhibition  63.8% (inactive)

Asked: Consider the compound shown here: `Cc1ccc(S(=O)(=O)N/N=C/c2cc(I)cc([N+](=O)[O-])c2O)cc1` What is its recorded growth inhibition?
Given back: 89.3% (active)

Asked: Consider the compound shown here: `Oc1ccccc1C1CCCCC1` What is its recorded growth inhibition?
Given back: 88.5% (active)

Asked: Consider the compound shown here: `ClC(Cl)(Cl)C(c1ccccc1)c1ccccc1` What is its recorded growth inhibition?
Given back: 76.8% (active)

Asked: Consider the compound shown here: `Cc1c(NC(=O)/C(=N/NC(=S)N=N)C2C(=O)CC(C)(C)CC2=O)c(O)c2ccccc2c1O` What is its recorded growth inhibition?
Given back: 95.3% (active)

Asked: Consider the compound shown here: CN(C)C1CCC2C(=C1OC(=O)c1ccccc1)C=Cc1ccccc12 (configuration not stated) What is its recorded growth inhibition?
Given back: 25% (inactive)

Asked: Consider the compound shown here: O=C(c1ccccc1)c1ccc(OCC2CO2)cc1 (configuration not stated) What is its recorded growth inhibition?
Given back: 64.3% (inactive)

Asked: Consider the compound shown here: `COC(=O)CCCCCCCCCCC(=O)O` What is its recorded growth inhibition?
Given back: 2.45% (inactive)
